Reported IC50 values are given for each entry in this list.
tgt: LasB (Pseudomonas aeruginosa)
assay_explanation: biochemical
Parameters: species or system P. aeruginosa
reported_conditions: IC50 against LasB
Answer with the number, then the unit.

CC(C)CC(C(=O)Nc1ccc(OCc2ccc(Cl)c(Cl)c2)cc1)n1nccn1 (centres unmarked) [Example 179]: 30 µM

Query: Quickly give me recorded IC50 for CC(C)CC(C(=O)Nc1ccc(Cl)c(Cl)c1)n1ccnn1 (centres unmarked) [Example 175]
Result: 4.3 µM

Query: Quickly give me recorded IC50 for CC(C)C(S)C(=O)Nc1ccc(Cl)c(Cl)c1 (centres unmarked) [Example 21]
Result: 2.5 µM

Query: Quickly give me recorded IC50 for Cc1ccc(NC(=O)C(CC(C)C)P(=O)(O)O)c(F)c1 (centres unmarked) [Example 65]
Result: 0.116 µM

Query: Quickly give me recorded IC50 for CC(C)CC(C(=O)Nc1ccc(Cl)c(Cl)c1)n1nccn1 (centres unmarked) [Example 178]
Result: 5.5 µM

* * *

tgt: CYP2D6 (Homo sapiens, UniProt P10635)
Sequence (P10635 whole entry): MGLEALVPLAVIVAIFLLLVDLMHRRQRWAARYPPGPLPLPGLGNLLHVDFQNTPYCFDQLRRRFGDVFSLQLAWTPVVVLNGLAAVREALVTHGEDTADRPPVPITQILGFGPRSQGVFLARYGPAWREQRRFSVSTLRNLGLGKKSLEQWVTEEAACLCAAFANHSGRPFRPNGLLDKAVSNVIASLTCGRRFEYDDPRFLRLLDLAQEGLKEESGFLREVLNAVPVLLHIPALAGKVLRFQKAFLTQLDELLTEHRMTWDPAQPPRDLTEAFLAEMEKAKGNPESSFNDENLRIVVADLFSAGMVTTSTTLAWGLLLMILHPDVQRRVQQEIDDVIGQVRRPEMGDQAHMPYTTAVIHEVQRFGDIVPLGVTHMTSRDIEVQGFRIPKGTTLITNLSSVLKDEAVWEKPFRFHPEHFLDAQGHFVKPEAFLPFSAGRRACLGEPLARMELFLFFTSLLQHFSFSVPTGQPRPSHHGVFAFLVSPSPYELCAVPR
outcome_measure: pIC50
// pIC50 here means minus log10 of the molar concentration (mol/L)

Query: State pIC50 (CYP2D6 (Homo sapiens, UniProt P10635)) of Cc1ccc(NC(=O)C(S)CC(C)C)cc1 (stereo not shown) [Example 2] .
Result: 4.65

* * *

tgt: MMP-3 (Homo sapiens)
Sequence (P08254 100-477): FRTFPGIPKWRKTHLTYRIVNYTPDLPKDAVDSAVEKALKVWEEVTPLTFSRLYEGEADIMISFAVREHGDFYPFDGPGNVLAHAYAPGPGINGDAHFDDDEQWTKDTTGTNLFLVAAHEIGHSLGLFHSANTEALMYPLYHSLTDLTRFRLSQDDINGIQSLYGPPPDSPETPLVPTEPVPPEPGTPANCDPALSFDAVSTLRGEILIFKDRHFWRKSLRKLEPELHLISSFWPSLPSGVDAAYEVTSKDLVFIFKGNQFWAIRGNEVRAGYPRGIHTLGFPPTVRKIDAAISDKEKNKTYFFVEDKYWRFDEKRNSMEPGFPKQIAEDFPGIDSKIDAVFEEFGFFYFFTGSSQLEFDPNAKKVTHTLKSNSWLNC
assay_explanation: Selectivity against human off-targets: MMP-3
Format: biochemical
reported_conditions: at 100 μM; read-out: Inhibition [%] MMP-3
outcome_measure: inhibition at 100 µM

Cc1ccc(NC(=O)C(CC(C)C)C(=O)NO)cc1 (centres unmarked): 16%
CC(C)CC(C(=O)N[C@H](c1nc2cc(Oc3ccccc3)ccc2[nH]1)C(C)C)P(=O)(O)O (mixture of isomers): 18%
Cc1ccc(NC(=O)C(CC(C)C)n2ccnn2)cc1 (centres unmarked): -3%
CC(C)CC(C(=O)Nc1ccc(NS(=O)(=O)c2ccc(Cl)c(Cl)c2)cc1)P(=O)(O)O (centres unmarked): < 10%
Cc1ccc(NC(=O)C(CC(C)C)P(=O)(O)O)cc1 (centres unmarked): < 10%
CC(C)CC(C(=O)N[C@H](c1cn(-c2ccc(Cl)c(Cl)c2)nn1)C(C)C)P(=O)(O)O (mixture of isomers): < 10%

Query: State inhibition at 100 µM (MMP-3 (Homo sapiens)) of CC(C)CC(C(=O)Nc1ccc(-c2ccc(Cl)cc2)nc1)P(=O)(O)O (centres unmarked) .
Result: < 10%

Query: State inhibition at 100 µM (MMP-3 (Homo sapiens)) of CC(C)CC(C(=O)N[C@H](C(=O)Nc1ccc(Cl)c(Cl)c1)C(C)C)P(=O)(O)O (mixture of isomers) .
Result: < 10%

* * *

Reported inhibition at 100 µM values are given for each entry in this list.
tgt: MMP-1 (Homo sapiens)
Sequence (P03956 100-469): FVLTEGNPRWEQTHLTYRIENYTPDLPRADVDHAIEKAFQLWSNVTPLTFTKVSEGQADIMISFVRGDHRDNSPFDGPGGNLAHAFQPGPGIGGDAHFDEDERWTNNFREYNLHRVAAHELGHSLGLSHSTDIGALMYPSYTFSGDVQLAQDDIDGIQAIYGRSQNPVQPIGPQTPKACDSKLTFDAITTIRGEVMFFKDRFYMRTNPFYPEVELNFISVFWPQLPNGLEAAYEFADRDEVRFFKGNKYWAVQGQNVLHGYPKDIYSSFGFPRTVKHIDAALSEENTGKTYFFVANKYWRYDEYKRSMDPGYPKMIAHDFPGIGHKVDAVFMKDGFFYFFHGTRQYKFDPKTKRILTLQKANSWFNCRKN
assay_explanation: Selectivity against human off-targets: MMP-1
Assay type: biochemical
reported_conditions: at 100 μM; read-out: Inhibition [%] MMP-1

CC(C)CC(C(=O)Nc1ccc(NS(=O)(=O)c2ccc(Cl)c(Cl)c2)cc1)P(=O)(O)O (centres unmarked): 12%

Query: Quickly give me recorded inhibition at 100 µM for CC(C)CC(C(=O)N[C@H](C(=O)Nc1ccc(Cl)c(Cl)c1)C(C)C)P(=O)(O)O (mixture of isomers)
Result: 13%

Query: Quickly give me recorded inhibition at 100 µM for Cc1ccc(NC(=O)C(CC(C)C)C(=O)NO)cc1 (centres unmarked)
Result: 29%

* * *

assay_explanation: Cytotoxicity A549
Format: cell-based
reported_conditions: human, A549 cells
pIC50: −log10 of the molar value.
Reported pIC50 values are given for each entry in this list.

Previously resolved entries follow.
CC(C)CC(C(=O)Nc1ccc(NS(=O)(=O)c2ccc(Cl)c(Cl)c2)cc1)P(=O)(O)O (stereo not drawn) [Example 108]: < 4.00
CC(C)CC(C(=O)Nc1ccc(-c2ccc(Cl)cc2)nc1)P(=O)(O)O (stereo not drawn) [Example 92]: < 4.00

Kindly review the next compound as well.
Query: Quickly give me recorded pIC50 for Cc1ccc(NC(=O)C(CC(C)C)P(=O)(O)O)cc1 (stereo not drawn) [Example 63]
Result: < 4.00

* * *

tgt: MMP-2 (Homo sapiens)
Sequence (P08253 110-660): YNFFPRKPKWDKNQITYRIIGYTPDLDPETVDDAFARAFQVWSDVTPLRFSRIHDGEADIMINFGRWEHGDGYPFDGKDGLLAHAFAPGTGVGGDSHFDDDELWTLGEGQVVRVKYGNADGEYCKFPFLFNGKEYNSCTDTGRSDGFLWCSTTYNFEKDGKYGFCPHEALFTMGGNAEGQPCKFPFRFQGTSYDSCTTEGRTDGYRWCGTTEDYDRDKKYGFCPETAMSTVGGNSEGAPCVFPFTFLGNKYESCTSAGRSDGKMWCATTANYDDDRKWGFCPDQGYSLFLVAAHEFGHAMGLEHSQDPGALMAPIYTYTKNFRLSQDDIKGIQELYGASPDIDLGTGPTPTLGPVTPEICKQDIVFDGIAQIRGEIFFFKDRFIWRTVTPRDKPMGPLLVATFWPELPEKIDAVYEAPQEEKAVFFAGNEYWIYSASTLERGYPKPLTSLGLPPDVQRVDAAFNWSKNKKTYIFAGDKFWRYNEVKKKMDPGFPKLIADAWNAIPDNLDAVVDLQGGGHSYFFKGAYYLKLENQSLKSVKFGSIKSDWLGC
assay_explanation: Selectivity against human off-targets: MMP-2
Format: biochemical
reported_conditions: at 100 μM; read-out: Inhibition [%] MMP-2
outcome_measure: inhibition at 100 µM (%)
Give a bare numeral; the unit % is implied.

Previously resolved entries follow.
CC(C)CC(C(=O)N[C@H](c1nc2cc(Oc3ccccc3)ccc2[nH]1)C(C)C)P(=O)(O)O (mixture of isomers): 12
CC(C)CC(C(=O)N[C@H](C(=O)Nc1ccc(Cl)c(Cl)c1)C(C)C)P(=O)(O)O (mixture of isomers): 7
CC(C)CC(C(=O)Nc1ccc(-c2ccc(Cl)cc2)nc1)P(=O)(O)O (stereo not shown): 18

Query: Quickly give me recorded inhibition at 100 µM for Cc1ccc(NC(=O)C(CC(C)C)C(=O)NO)cc1 (stereo not shown)
Result: 26

* * *

assay_explanation: Pharmacokinetic (PK) studies in mice
Type: in vivo
reported_conditions: mouse, blood, iv, 10 mg/kg, first measuring point
outcome_measure: Tmax (min)
Give a bare numeral; the unit min is implied.

Query: Quickly give me recorded Tmax for Cc1ccc(NC(=O)C(S)CC(C)C)cc1 (stereo not shown)
Result: 15

* * *

Reported pIC50 values are given for each entry in this list.
tgt: LasB (Pseudomonas aeruginosa, UniProt Q02RJ6)
Sequence (Q02RJ6 198-498): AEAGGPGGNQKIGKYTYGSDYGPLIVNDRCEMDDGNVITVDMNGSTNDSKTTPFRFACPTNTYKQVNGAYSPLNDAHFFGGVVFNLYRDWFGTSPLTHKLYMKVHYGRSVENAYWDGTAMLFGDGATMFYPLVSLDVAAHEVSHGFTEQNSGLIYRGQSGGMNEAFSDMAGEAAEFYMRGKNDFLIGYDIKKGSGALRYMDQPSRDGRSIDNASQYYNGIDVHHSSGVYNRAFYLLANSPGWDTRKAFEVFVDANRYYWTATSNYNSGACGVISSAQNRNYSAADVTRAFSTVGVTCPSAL
assay_explanation: biochemical
Design: species or system P. aeruginosa
reported_conditions: read-out: IC50 against LasB
// pIC50 here means minus log10 of the molar concentration (mol/L)

Previously resolved entries follow.
O=C(Nc1ccc(Cl)c(Cl)c1)C(S)CC1CCCCC1 (stereo not shown) [Example 47]: 4.92
COC(=O)c1ccsc1NC(=O)C(S)Cc1ccccc1 (stereo not shown) [Example 59]: 5.10
O=C(Nc1nc2ccc(Cl)cc2s1)C(S)Cc1ccccc1 (stereo not shown) [Example 57]: 5.62
Cc1ccc(CC(S)C(=O)Nc2ccccc2)cc1 (stereo not shown) [Example 13]: 5.55
Cc1ccc(NC(=O)C(S)Cc2ccccc2)cc1 (stereo not shown) [Example 8]: 6.32
O=C(Nc1cccnc1)C(S)Cc1ccccc1 (stereo not shown) [Example 60]: 5.92

Query: Quickly give me recorded pIC50 for Cc1ccccc1NC(=O)C(S)Cc1ccccc1 (stereo not shown) [Example 6]
Result: 5.62

Query: Quickly give me recorded pIC50 for O=C(Nc1ccccc1)C(S)Cc1ccc(O)c([N+](=O)[O-])c1 (stereo not shown) [Example 12]
Result: 5.60

Query: Quickly give me recorded pIC50 for O=C(Nc1ccc(Cl)c(Cl)c1)C(S)CC1CC1 (stereo not shown) [Example 45]
Result: 5.20

Query: Quickly give me recorded pIC50 for O=C(Nc1nccs1)C(S)Cc1ccccc1 (stereo not shown) [Example 58]
Result: 5.80

* * *

assay_explanation: Cytotoxicity HepG2
Assay type: cell-based
reported_conditions: human, HepG2 cells
pIC50: −log10 of the molar value.
outcome_measure: pIC50

Previously resolved entries follow.
CC(C)CC(C(=O)Nc1ccc(-c2ccc(Cl)cc2)nc1)P(=O)(O)O (stereo not drawn) [Example 92]: < 4.00
CC(C)CC(C(=O)Nc1ccc(NS(=O)(=O)c2ccc(Cl)c(Cl)c2)cc1)P(=O)(O)O (stereo not drawn) [Example 108]: < 4.00

Query: Quickly give me recorded pIC50 for Cc1ccc(NC(=O)C(CC(C)C)P(=O)(O)O)cc1 (stereo not drawn) [Example 63]
Result: < 4.00

* * *

tgt: LasB (Pseudomonas aeruginosa)
assay_explanation: biochemical
Parameters: species or system P. aeruginosa
reported_conditions: IC50 against LasB
Reported log10(IC50) values are given for each entry in this list.
In plain terms, each number is the log10 of measured IC50 in µM.

Previously resolved entries follow.
O=C(Nc1nc2ccccc2s1)C(S)Cc1ccccc1 (centres unmarked): -0.12
CCCC(S)C(=O)Nc1ccc(Cl)c(Cl)c1 (centres unmarked): 0.60
CC(C)CC(C(=O)N[C@@H]1CCCN(Cc2ccc(Cl)cc2)C1)P(=O)(O)O (some centres unmarked): 0.92

Query: State log10(IC50) (LasB (Pseudomonas aeruginosa)) of CC(C)CC(C(=O)Nc1ccc(Br)cc1)P(=O)(O)O (centres unmarked) .
Result: -1.31

Query: State log10(IC50) (LasB (Pseudomonas aeruginosa)) of CC(C)CC(S)C(=O)Nc1ccccc1O (centres unmarked) .
Result: 0.15

* * *

tgt: LasB (Pseudomonas aeruginosa)
assay_explanation: biochemical
Parameters: species or system P. aeruginosa
reported_conditions: IC50 against LasB
Reported IC50 values are given for each entry in this list.
Give a bare numeral; the unit nM is implied.

Cc1ccc(NC(=O)C(CC(C)C)C(=O)NO)cc1 (centres unmarked): 14
CC(C)CC(C(=O)Nc1ccc(NC(=O)c2ccc(Cl)c(Cl)c2)cc1)P(=O)(O)O (centres unmarked) [Example 118]: 25
CC(C)CC(C(=O)N[C@H]1CCCN(Cc2ccc(Cl)cc2)C1)P(=O)(O)O (mixture of isomers): 5180
CC(C)CC(C(=O)Nc1ccc(NC(=O)c2nc(Cl)cs2)cc1)P(=O)(O)O (centres unmarked): 49
CC(C)CC(C(=O)Nc1ccc(F)cc1)P(=O)(O)O (centres unmarked): 93
CC(C)CC(C(=O)Nc1ccc(C(N)=O)nc1)P(=O)(O)O (centres unmarked): 223

Query: Quickly give me recorded IC50 for CC(C)CC(C(=O)N[C@H](C(=O)Nc1ccc(Cl)c(Cl)c1)c1ccccc1)P(=O)(O)O (some centres unmarked)
Result: 100

Query: Quickly give me recorded IC50 for CC(C)CC(C(=O)N[C@@H](Cc1ccccc1)C(=O)Nc1ccc(Cl)c(Cl)c1)P(=O)(O)O (some centres unmarked)
Result: 427

Query: Quickly give me recorded IC50 for CC(C)CC(C(=O)N[C@@H](CC1CC1)C(=O)Nc1ccc(Cl)c(Cl)c1)P(=O)(O)O (some centres unmarked)
Result: 27

Query: Quickly give me recorded IC50 for CC(C)CC(C(=O)Nc1ccc(Cl)cc1)P(=O)(O)O (centres unmarked)
Result: 48

Query: Quickly give me recorded IC50 for COCC(S)C(=O)Nc1ccc(Cl)c(Cl)c1 (centres unmarked)
Result: 2400

Query: Quickly give me recorded IC50 for COc1ccc(NC(=O)C(S)CC(C)C)cc1 (centres unmarked)
Result: 360

Query: Quickly give me recorded IC50 for CC(C)CC(C(=O)Nc1ccc(S(=O)(=O)C(F)(F)F)cc1)P(=O)(O)O (centres unmarked)
Result: 28
